# CONDITION PARAMETERS: in n-propanol, 278.15 K
REPORTED ENDPOINT: solubility (mole fraction)
Enter a number only.

For record CC#CCn1c(N2CCC[C@@H](N)C2)nc2c1c(=O)n(Cc1nc(C)c3ccccc3n1)c(=O)n2C the listed solubility (mole fraction) is 0.000403

----------
# CONDITION PARAMETERS: in ethanol, 313.15 K
REPORTED ENDPOINT: solubility (mole fraction)
Enter a number only.

For record CC#CCn1c(N2CCC[C@@H](N)C2)nc2c1c(=O)n(Cc1nc(C)c3ccccc3n1)c(=O)n2C the listed solubility (mole fraction) is 0.00231

----------
# CONDITION PARAMETERS: in methanol, 293.15 K
REPORTED ENDPOINT: solubility (mole fraction)
Enter a number only.

For record CC#CCn1c(N2CCC[C@@H](N)C2)nc2c1c(=O)n(Cc1nc(C)c3ccccc3n1)c(=O)n2C the listed solubility (mole fraction) is 0.00148

----------
# CONDITION PARAMETERS: in ethanol, 288.15 K
REPORTED ENDPOINT: solubility (mole fraction)
Enter a number only.

For record CC#CCn1c(N2CCC[C@@H](N)C2)nc2c1c(=O)n(Cc1nc(C)c3ccccc3n1)c(=O)n2C the listed solubility (mole fraction) is 0.000947

----------
# CONDITION PARAMETERS: in isopropanol, 288.15 K
REPORTED ENDPOINT: solubility (mole fraction)
Enter a number only.

For record CC#CCn1c(N2CCC[C@@H](N)C2)nc2c1c(=O)n(Cc1nc(C)c3ccccc3n1)c(=O)n2C the listed solubility (mole fraction) is 0.000421

----------
# CONDITION PARAMETERS: in n-propanol, 298.15 K
REPORTED ENDPOINT: solubility (mole fraction)
Enter a number only.

For record CC#CCn1c(N2CCC[C@@H](N)C2)nc2c1c(=O)n(Cc1nc(C)c3ccccc3n1)c(=O)n2C the listed solubility (mole fraction) is 0.000794

----------
# CONDITION PARAMETERS: in isopropanol, 278.15 K
REPORTED ENDPOINT: solubility (mole fraction)
Enter a number only.

For record CC#CCn1c(N2CCC[C@@H](N)C2)nc2c1c(=O)n(Cc1nc(C)c3ccccc3n1)c(=O)n2C the listed solubility (mole fraction) is 0.000282

----------
# CONDITION PARAMETERS: in ethanol, 273.15 K
REPORTED ENDPOINT: solubility (mole fraction)
Enter a number only.

For record CC#CCn1c(N2CCC[C@@H](N)C2)nc2c1c(=O)n(Cc1nc(C)c3ccccc3n1)c(=O)n2C the listed solubility (mole fraction) is 0.000511

----------
# CONDITION PARAMETERS: in n-propanol, 283.15 K
REPORTED ENDPOINT: solubility (mole fraction)
Enter a number only.

For record CC#CCn1c(N2CCC[C@@H](N)C2)nc2c1c(=O)n(Cc1nc(C)c3ccccc3n1)c(=O)n2C the listed solubility (mole fraction) is 0.000478

----------
# CONDITION PARAMETERS: in ethanol, 308.15 K
REPORTED ENDPOINT: solubility (mole fraction)
Enter a number only.

For record CC#CCn1c(N2CCC[C@@H](N)C2)nc2c1c(=O)n(Cc1nc(C)c3ccccc3n1)c(=O)n2C the listed solubility (mole fraction) is 0.00194

----------
# CONDITION PARAMETERS: in n-propanol, 313.15 K
REPORTED ENDPOINT: solubility (mole fraction)
Enter a number only.

For record CC#CCn1c(N2CCC[C@@H](N)C2)nc2c1c(=O)n(Cc1nc(C)c3ccccc3n1)c(=O)n2C the listed solubility (mole fraction) is 0.00125

----------
# CONDITION PARAMETERS: in acetonitrile, 298.15 K
REPORTED ENDPOINT: solubility (mole fraction)

For record CC#CCn1c(N2CCC[C@@H](N)C2)nc2c1c(=O)n(Cc1nc(C)c3ccccc3n1)c(=O)n2C the listed solubility (mole fraction) is 0.00114

----------
# CONDITION PARAMETERS: in methanol, 298.15 K
REPORTED ENDPOINT: solubility (mole fraction)
Enter a number only.

For record CC#CCn1c(N2CCC[C@@H](N)C2)nc2c1c(=O)n(Cc1nc(C)c3ccccc3n1)c(=O)n2C the listed solubility (mole fraction) is 0.00179

----------
# CONDITION PARAMETERS: in isopropanol, 313.15 K
REPORTED ENDPOINT: solubility (mole fraction)

For record CC#CCn1c(N2CCC[C@@H](N)C2)nc2c1c(=O)n(Cc1nc(C)c3ccccc3n1)c(=O)n2C the listed solubility (mole fraction) is 0.000874

----------
# CONDITION PARAMETERS: in acetonitrile, 288.15 K
REPORTED ENDPOINT: solubility (mole fraction)
Enter a number only.

For record CC#CCn1c(N2CCC[C@@H](N)C2)nc2c1c(=O)n(Cc1nc(C)c3ccccc3n1)c(=O)n2C the listed solubility (mole fraction) is 0.000821

----------
# CONDITION PARAMETERS: in methanol, 278.15 K
REPORTED ENDPOINT: solubility (mole fraction)

For record CC#CCn1c(N2CCC[C@@H](N)C2)nc2c1c(=O)n(Cc1nc(C)c3ccccc3n1)c(=O)n2C the listed solubility (mole fraction) is 0.000778

----------
# CONDITION PARAMETERS: in ethanol, 278.15 K
REPORTED ENDPOINT: solubility (mole fraction)
Enter a number only.

For record CC#CCn1c(N2CCC[C@@H](N)C2)nc2c1c(=O)n(Cc1nc(C)c3ccccc3n1)c(=O)n2C the listed solubility (mole fraction) is 0.000637

----------
# CONDITION PARAMETERS: in n-propanol, 288.15 K
REPORTED ENDPOINT: solubility (mole fraction)
Enter a number only.

For record CC#CCn1c(N2CCC[C@@H](N)C2)nc2c1c(=O)n(Cc1nc(C)c3ccccc3n1)c(=O)n2C the listed solubility (mole fraction) is 0.000573

----------
# CONDITION PARAMETERS: in acetonitrile, 308.15 K
REPORTED ENDPOINT: solubility (mole fraction)

For record CC#CCn1c(N2CCC[C@@H](N)C2)nc2c1c(=O)n(Cc1nc(C)c3ccccc3n1)c(=O)n2C the listed solubility (mole fraction) is 0.00151

----------
# CONDITION PARAMETERS: in isopropanol, 273.15 K
REPORTED ENDPOINT: solubility (mole fraction)
Enter a number only.

For record CC#CCn1c(N2CCC[C@@H](N)C2)nc2c1c(=O)n(Cc1nc(C)c3ccccc3n1)c(=O)n2C the listed solubility (mole fraction) is 0.000227
